Test system: SEM cells
Test: cell viability relative to DMSO control; higher = less cytotoxic
Details: HPLM + 10% dialyzed FBS; 48 h; 0.00702 µM

Molecule	cell viability
NC(=O)c1ncn([C@@H]2O[C@H](CO)[C@@H](O)[C@H]2O)c1O	82.8%
CCCC1OC2C[C@H]3[C@@H]4CCC5=CC(=O)C=C[C@]5(C)[C@H]4C(O)C[C@]3(C)[C@]2(C(=O)CO)O1 (some centres undefined)	97.1%
N#C/C(C(=O)c1ccc(Cl)cc1Cl)=C1/NC(=O)c2ccc(Cl)cc2N1	124%
COc1ncc(-c2ccc3c(Nc4cc(Oc5cc(F)cc(F)c5)cc(C(=O)O)c4)c([S+](=O)([O-])NC4CC4)cnc3c2)c(OC)n1	77.5%

----------
System: NOMO1
Test: cell viability relative to DMSO control; higher = less cytotoxic
Details: RPMI 5 mM glucose + 10% dialyzed FBS; 48 h; 0.00234 µM

Molecule	cell viability / %
CC/1=C(/N2[C@H](SC1)[C@H](NC(=O)C(N)C3=CC=CC=C3)C2=O)C(O)=O (stereo partly drawn)	135
COc1cc(O)c2c(c1)C(=O)c1cc(C)cc(O)c1C2=O	114
CC/1=C(\O)C(=O)\C=C2/C1=C/C=C3\[C@@]2(C)CC[C@@]4(C)[C@@H]5C[C@@](C)(CC[C@]5(C)CC[C@]34C)C(O)=O	104
Cc1ncc([N+](=O)[O-])n1CC(C)O (stereo not drawn)	107
OC(CN1CCN(c2cccc(Cl)c2)CC1)C(c1ccccc1)c1ccccc1 (stereo not drawn)	118
C[C@]12CC[C@H]3[C@@H](CCC/4=C/C(=O)CC[C@]34C)[C@@H]1CC[C@@H]2OC(=O)CCC5CCCC5	105
COC(=O)\C1=C\CCN(C)C1	96.3
C[C@H]1O[C@H](C[C@H](O)[C@@H]1O)O[C@H]2[C@@H](O)C[C@@H](O[C@@H]2C)O[C@H]3[C@@H](O)C[C@@H](O[C@@H]3C)O[C@H]4CC[C@@]5(C)[C@H](CC[C@@H]6[C@@H]5C[C@@H](O)[C@]7(C)[C@H](CC[C@]67O)C/8=C/C(=O)OC8)C4	121
C#CCN[C@@H]1CCc2ccccc21.CS(=O)(=O)O	99.9
C[C@](N)(Cc1ccc(O)c(O)c1)C(=O)O	88.5
CC(C)Cc1ccc(C(C)C(=O)O)cc1 (stereo not drawn)	83
CC(C)Oc1ccc(C(=O)N[C@H](CNC(=O)CN(C)C)Cc2ccc(-c3cn4cccc([C@H](C)O)c4n3)cc2)cc1Cl	124
Cc1nc(Nc2n[nH]c3c2CN(C(=O)N[C@H](CN(C)C)c2ccccc2)C3(C)C)c2sccc2n1	86.9
N[S+](=O)([O-])OC[C@@H]1C[C@@H](n2ccc3c(N[C@H]4CCc5ccccc54)ncnc32)C[C@@H]1O	97.4
CC(C)(O)/C=C\C(=O)[C@](C)(O)[C@H]1[C@H](O)C[C@]2(C)[C@@H]3CC=C4[C@@H](C=C(O)C(=O)C4(C)C)[C@]3(C)C(=O)C[C@@]12C	110
C1CCN2C[C@H]3C[C@H](\C=C/4CCCN[C@@H]34)[C@H]2C1	108
N#C/C(C(=O)c1ccc(Cl)cc1Cl)=C1/NC(=O)c2ccc(Cl)cc2N1	114
OCCn1cc(-c2cnc3nnn(Cc4ccc5ncccc5c4)c3n2)cn1	105
